# Tested on: HOP-62 NSCLC
# Measurement Protocol: NCI tumour cell line growth inhibition, 48 h; in the data active = GI50 below about 0.43 µM; inactive = the rest
Where a SMILES comes first, the peptide text is derived from it. [ ]: non-standard residue; d: D form. The star is where a group is joined. dTle = CC(C)(C)[C@@H](N)C(=O)O; 4Abz = Nc1ccc(C(=O)O)cc1; NHOH = ON*
Lab note: assign the record to one of 1 for active, -1 for inactive

Which result was noted for this compound in the test: C/C(=C\c1cc(C(F)(F)F)n(-c2ccc(N)cc2)n1)[C@@H]1C[C@@H]2O[C@]2(C)CCC[C@H](C)[C@H](O)[C@@H](C)C(=O)C(C)(C)[C@@H](O)CC(=O)O1 1

Per the assay record, what outcome was assigned to Cc1ccc(C(=O)/C(=C\c2ccc([N+](=O)[O-])cc2)S(=O)Cc2ccc(Cl)cc2)cc1 (stereo not given) ? -1

Would you mind telling me which call this test gave N#Cc1cc(S(=O)(=O)Nc2nnc(-c3ccccc3)c(-c3ccccc3)n2)c(SCc2ccccc2)cc1Cl ? -1

# fetch the recorded call for C=C1C(=O)O[C@H]2[C@H]1CC/C(COC(=O)C(C)c1ccc(CC(C)C)cc1)=C\CC[C@@]1(C)O[C@@H]21 (stereo not given in full) here -1

Assay outcome for Cc1cc(N2CCOCC2)nc(N(CCCNc2ccnc3cc(Cl)ccc23)Cc2ccco2)n1 : what was it? -1

Answer briefly: the call reported for OCCNc1nc(Nc2ccc(Cl)c(Cl)c2)nc2ccccc12 in this assay. -1

Hey, what did the test say about CC(=O)[CH-]C(=O)c1ccccc1.CC(=O)[CH-]C(=O)c1ccccc1.Cc1cc([O-])ccc1Cl.Cc1cc([O-])ccc1Cl.[Ti+4] ? -1

Test call, this compound: C[C@@H](NC(=O)[C@H](NC(=O)[C@@H]1CCCN1C(=O)CNC(=O)c1ccc(N)cc1)C(C)(C)C)C(=O)NO (H-[4Abz]GP[dTle][dA]-{NHOH}) -1

Field: outcome | Entry: CC([C@H]1CCC2C3CCC4C[C@@H](N)CC[C@]4(C)C3CC[C@@]21C)N(C)C (stereo not given in full) -1

Which outcome did this test record for the compound Clc1ccccc1CNc1c2ccccc2nc2ccccc12 ? -1

Write down the call the test reported for this compound. Item: Cc1ccc(NC(=O)CSc2nnc3n(Cc4ccccc4)c(=O)c4c(C)c(C(N)=O)sc4n23)cc1 -1

Any idea what this test logged for CC1(N)CCN(c2cnc(-c3cccc(Cl)c3Cl)c(N)n2)CC1 ? -1

How did this test come out for O=C(NO)[C@@H](Cc1ccccc1)NS(=O)(=O)c1ccc(-c2ccccc2)cc1 ? -1

Record lookup: outcome of this test for CO/N=C(\COc1ccc2oc(-c3ccccc3)cc(=O)c2c1)c1ccc(OC)cc1 ? -1

Call for entry CCCN(CCC)c1ccc(/C=N/NC(=O)c2cccnc2)c(OC)c1 : -1

Reference source for all entries: PubChem BioAssay (NCI)
